Target: T1, 4H3010-bH
T1 chain: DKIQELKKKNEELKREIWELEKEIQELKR
Test: two-hybrid library CCNG1;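 note: natural log of median RNA to DNA barcode read ratio; higher means stronger binding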
observed.property: interaction score
Numbers only.

Worked examples, 8 binders total:
# binder, observed.property, value.measured
records = [
    ("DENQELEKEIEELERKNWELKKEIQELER [4H1081-bH]", "interaction score", -1.02),
    ("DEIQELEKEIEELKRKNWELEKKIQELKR [4H118-bH]", "interaction score", 1.94),
    ("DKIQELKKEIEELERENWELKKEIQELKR [4H2586-bH]", "interaction score", 0.779),
    ("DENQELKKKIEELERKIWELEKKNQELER [4H1831-bH]", "interaction score", 1.32),
    ("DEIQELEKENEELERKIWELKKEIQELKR [4H170-bH]", "interaction score", 2.38),
    ("DKIQELKKEIEELKREIWELEKENQELER [4H2627-bH]", "interaction score", 0.547),
    ("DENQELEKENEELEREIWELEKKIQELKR [4H1158-bH]", "interaction score", 1.95),
    ("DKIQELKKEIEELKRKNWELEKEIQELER [4H2673-bH]", "interaction score", 2.11),
]

Below are some binders; for each one, tell me its interaction score.
1. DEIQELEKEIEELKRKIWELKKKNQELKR [4H112-bH]
2. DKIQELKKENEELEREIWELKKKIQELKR [4H2702-bH]

1. 1.49
2. 1.37
